System: VA-ES-BJ tumor spheroid viability
experiment-description: Anticancer human tumor VA-ES-BJ cell line growth inhibition;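 further: spheroids exposed to compounds for seven days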
run-parameters: second compound 100 µM; first compound 1 µM; active compounds read low; spheroids with HUVEC and MSC
Define the label as Y when viability, T/C is strictly less than 50% and as N in all remaining cases.

1. CC(C)n1c(=O)n(C)c2cnc3cc(F)c(-c4ccc(OCCCN5CCCCC5)nc4)cc3c21 + Cn1nnc2c(C(N)=O)ncn2c1=O :: N
2. COc1ccc([C@@H](O)c2cc(-c3ncnc4cc(N5CCOCC5)ccc34)c(F)cc2Cl)nn1 + Cn1nnc2c(C(N)=O)ncn2c1=O :: Y
3. Cc1cc(C)c(CNC(=O)c2cc(-c3ccc(CN4CCOCC4)cc3)cc3c2cnn3C2CCCC2)c(=O)[nH]1 + Cn1nnc2c(C(N)=O)ncn2c1=O :: N
4. [2H]c1nc(C)nc([2H])c1-c1cc(NC[C@@H](C)c2cccc3c(C(=O)NC)ccnc23)ncn1 + Cn1nnc2c(C(N)=O)ncn2c1=O :: N
5. CC1COCCN1c1cc(-c2ccnn2C)c2ccnc(-c3ccn[nH]3)c2n1 (stereo unspecified) + Cn1nnc2c(C(N)=O)ncn2c1=O :: Y

Now let's try a different one.
A record lists COc1cc(C)[nH]c(=O)c1CN1CCc2c(Cl)cc(C(OC)C3COC3)c(Cl)c2C1=O (stereo unspecified) + Cn1nnc2c(C(N)=O)ncn2c1=O . Is its viability, T/C below 50%?
N
